Provenance of the data: patent US8987249B2

study.target: recombinant human DPPI (Cathepsin C) (Homo sapiens (Human), UniProt P53634)
Sequence (P53634 231-394): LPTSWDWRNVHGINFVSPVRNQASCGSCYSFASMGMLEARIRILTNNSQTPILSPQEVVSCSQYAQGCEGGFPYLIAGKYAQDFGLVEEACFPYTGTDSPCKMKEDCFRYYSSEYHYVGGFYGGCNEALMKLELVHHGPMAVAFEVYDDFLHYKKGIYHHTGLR
Sequence (P53634 395-463): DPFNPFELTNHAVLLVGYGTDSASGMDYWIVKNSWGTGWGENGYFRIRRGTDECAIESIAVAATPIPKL
Sequence (P53634 25-134): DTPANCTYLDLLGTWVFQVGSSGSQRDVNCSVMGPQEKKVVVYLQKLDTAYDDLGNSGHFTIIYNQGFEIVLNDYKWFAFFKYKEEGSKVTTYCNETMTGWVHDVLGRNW
experimental.protocol: Inhibition of human DPPI (Cathepsin C)
details: substrate Gly-Arg-AMC
endpoint.name: pIC50
Lab note — pIC50 values are minus log10 of concentrations in M.

Ask: # get_value(readout='pIC50', item= "CN1Cc2ccc(-c3ccc(C[C@@H](C#N)NC(=O)[C@H]4N[C@@H]5CC[C@H]4C5)c(F)c3)cc2C1" )
Reply: 8.07

Ask: Next record, please: CCS(=O)(=O)c1ccc(-c2ccc(CC(C#N)NC(=O)[C@H]3N[C@@H]4CC[C@H]3C4)c(F)c2)cc1 (stereo partly shown)
Reply: 7.97

Ask: Next record, please: "CN1CCN(c2ccc(C[C@@H](C#N)NC(=O)[C@H]3N[C@@H]4CC[C@H]3C4)c(F)c2)CC1"
Reply: 7.97

Ask: Next record, please: "N#C[C@@H](Cc1ccc(-c2ccc3ncsc3c2)cc1F)NC(=O)[C@H]1N[C@@H]2CC[C@H]1C2"
Reply: 8.20

###

study.target: recombinant human DPPI (Cathepsin C) (Homo sapiens (Human), UniProt P53634)
experimental.protocol: Inhibition of human DPPI (Cathepsin C)
details: substrate Gly-Arg-AMC
endpoint.name: pIC50
Lab note — pIC50 values are minus log10 of concentrations in M.

Ask: # get_value(readout='pIC50', item= "COc1ccc(-c2cn(-c3ccc(C[C@@H](C#N)NC(=O)[C@H]4N[C@@H]5CC[C@H]4C5)c(F)c3)nn2)cc1OC" )
Reply: 7.92

Ask: Next record, please: "COC(=O)c1cc(-c2ccc(C[C@@H](C#N)NC(=O)[C@H]3N[C@@H]4CC[C@H]3C4)c(F)c2)cs1"
Reply: 8.59

Ask: Next record, please: "COC(=O)c1cc(C)c(-c2ccc(C[C@@H](C#N)NC(=O)[C@H]3N[C@@H]4CC[C@H]3C4)c(F)c2)s1"
Reply: 7.80

Ask: Next record, please: "CS(=O)(=O)c1cc(OCC(F)(F)F)cc(-c2ccc(C[C@@H](C#N)NC(=O)[C@H]3N[C@@H]4CC[C@H]3C4)c(F)c2)c1"
Reply: 7.85

Ask: Next record, please: "N#C[C@H](Cc1ccc(-c2ccc(=O)[nH]c2)cc1F)NC(=O)[C@H]1N[C@@H]2CC[C@H]1C2"
Reply: 8.10

Ask: Next record, please: "N#C[C@H](Cc1ccc(-c2ccc3c(c2)NC(=O)C3)c(F)c1F)NC(=O)[C@H]1N[C@@H]2CC[C@H]1C2"
Reply: 8.07

Ask: Next record, please: "CN1CCCN(c2ccc(C[C@@H](C#N)NC(=O)[C@H]3N[C@@H]4CC[C@H]3C4)c(F)c2)CC1"
Reply: 8.08

Ask: Next record, please: N#CC(Cc1ccc2c(c1)c(=O)[nH]c1c(F)c(F)ccc12)NC(=O)[C@H]1N[C@@H]2CC[C@H]1C2 (stereo partly shown)
Reply: 8.42

Ask: Next record, please: "N#C[C@H](Cc1ccc(-c2csc(C(=O)N3CCN(CC(F)(F)F)CC3)c2)cc1F)NC(=O)[C@H]1N[C@@H]2CC[C@H]1C2"
Reply: 8.66

Ask: Next record, please: "N#C[C@H](Cc1ccc(N2CCN(CCO)CC2)cc1F)NC(=O)[C@H]1N[C@@H]2CC[C@H]1C2"
Reply: 7.96

Ask: Next record, please: N#CC(Cc1ccc2c(c1)c(=O)[nH]c1c(F)cc(F)cc12)NC(=O)[C@H]1N[C@@H]2CC[C@H]1C2 (stereo partly shown)
Reply: 8.03

Ask: Next record, please: CNS(=O)(=O)c1ccc(-c2ccc(CC(C#N)NC(=O)[C@H]3N[C@@H]4CC[C@H]3C4)c(F)c2)cc1 (stereo partly shown)
Reply: 8.12

Ask: Next record, please: "Cn1c(=O)oc2ccc(-c3ccc(C[C@@H](C#N)NC(=O)[C@H]4N[C@H]5C[C@@H]4[C@@H]4C[C@@H]45)c(F)c3)cc21"
Reply: 7.08

Ask: Next record, please: "CC(C)CC(=O)n1cc(-c2ccc(C[C@@H](C#N)NC(=O)[C@H]3N[C@@H]4CC[C@H]3C4)c(F)c2)cn1"
Reply: 8.14

Ask: Next record, please: N#CC(Cc1ccc(-c2ccc3c(c2)COC3=O)cc1F)NC(=O)[C@H]1N[C@@H]2CC[C@H]1C2 (stereo partly shown)
Reply: 8.77

Ask: Next record, please: "CN1CCN(C(=O)c2cccc(-c3ccc(C[C@@H](C#N)NC(=O)[C@H]4N[C@@H]5CC[C@H]4C5)c(F)c3)c2)CC1"
Reply: 8.23

Ask: Next record, please: Cn1c(=O)c2cc(CC(C#N)NC(=O)[C@H]3N[C@@H]4CC[C@H]3C4)ccc2c2ccccc21 (stereo partly shown)
Reply: 7.58

Ask: Next record, please: "CCn1cc(-c2ccc(C[C@@H](C#N)NC(=O)[C@H]3N[C@H]4C[C@@H]3[C@@H]3C[C@@H]34)c(F)c2)cn1"
Reply: 7.84

Ask: Next record, please: "Cc1cnn(C)c1-c1ccc(C[C@@H](C#N)NC(=O)[C@H]2N[C@@H]3CC[C@H]2C3)c(F)c1"
Reply: 6.56

###

experimental.protocol: Determination of metabolic stability with human liver microsomes
details: human, pooled human liver microsomes, pH 7.6
endpoint.name: half-life at 1 μM

Ask: # get_value(readout='half-life at 1 μM', item= N#C[C@H](Cc1ccc(-c2cnc3n2CCC3)cc1F)NC(=O)[C@H]1N[C@@H]2CC[C@H]1C2 [Example 221] )
Reply: > 2.17 h

Ask: Next record, please: N#C[C@H](Cc1ccc(-c2cnn(C[C@@H]3CCOC3)c2)cc1F)NC(=O)[C@H]1N[C@@H]2CC[C@H]1C2 [Example 262]
Reply: > 2 h

Ask: Next record, please: N#C[C@H](Cc1ccc(-c2ccc(C(N)=O)s2)cc1F)NC(=O)[C@H]1N[C@@H]2CC[C@H]1C2 [Example 236]
Reply: > 2.17 h

###

Consider the following compounds; for each one, report its log10 IC50.
study.target: recombinant human DPPI (Cathepsin C) (Homo sapiens (Human))
experimental.protocol: Inhibition of human DPPI (Cathepsin C)
details: substrate Gly-Arg-AMC
Please keep in mind that the values are log10 of IC50 expressed in nM.

Ask: # get_value(readout='log10 IC50', item= N#CC(Cc1ccc2c(c1)c(=O)[nH]c1ccc(N)cc12)NC(=O)[C@H]1N[C@@H]2CC[C@H]1C2 (stereo partly drawn) )
Reply: 1.15

Ask: Next record, please: N#C[C@H](Cc1ccc(N2CCC3C(=O)NCCC3C2)cc1F)NC(=O)[C@H]1N[C@@H]2CC[C@H]1C2 (stereo partly drawn)
Reply: 1.26

Ask: Next record, please: "CC(C)N1CCCN(c2ccc(C[C@@H](C#N)NC(=O)[C@H]3N[C@@H]4CC[C@H]3C4)c(F)c2)CC1"
Reply: 1.02

Ask: Next record, please: N#Cc1cc(F)c2[nH]c(=O)c3cc(CC(C#N)NC(=O)[C@H]4N[C@@H]5CC[C@H]4C5)ccc3c2c1 (stereo partly drawn)
Reply: 0.86

Ask: Next record, please: "CN1C(=O)Cc2ccc(-c3cc(F)c(C[C@@H](C#N)NC(=O)[C@H]4N[C@@H]5CC[C@H]4C5)cc3F)cc21"
Reply: 0.63

Ask: Next record, please: N#CC(Cc1ccc(-c2cnn(-c3ccccc3)c2)cc1F)NC(=O)[C@H]1N[C@@H]2CC[C@H]1C2 (stereo partly drawn)
Reply: 1.08

Ask: Next record, please: "N#C[C@H](Cc1ccc(-c2cccc(C(N)=O)c2)cc1F)NC(=O)[C@H]1N[C@@H]2CC[C@H]1C2"
Reply: 0.57

Ask: Next record, please: "CN1CCN(c2ccc(F)c(C[C@@H](C#N)NC(=O)[C@H]3N[C@@H]4CC[C@H]3C4)c2)CC1"
Reply: 2.33

Ask: Next record, please: "CNc1nc2cc(-c3ccc(C[C@@H](C#N)NC(=O)[C@H]4N[C@@H]5CC[C@H]4C5)c(F)c3)ccc2n1C"
Reply: 1.04

Ask: Next record, please: N#CC(Cc1ccc(-c2ccc3c(c2)NC(=O)C3)cc1F)NC(=O)[C@H]1N[C@@H]2CC[C@H]1C2 (stereo partly drawn)
Reply: 0.52

Ask: Next record, please: N#C[C@H](Cc1ccc(C2CCN(C3CCOC3)CC2)cc1F)NC(=O)[C@H]1N[C@@H]2CC[C@H]1C2 (stereo partly drawn)
Reply: 1.45

Ask: Next record, please: "CS(=O)(=O)c1ccc(-c2ccc(C[C@@H](C#N)NC(=O)[C@H]3N[C@@H]4CC[C@H]3C4)c(F)c2)c(F)c1"
Reply: 1.15

Ask: Next record, please: "CN1CCC(c2ccc(C[C@@H](C#N)NC(=O)[C@H]3N[C@@H]4CC[C@H]3C4)c(F)c2)CC1"
Reply: 1.60

Ask: Next record, please: "Cn1ncc2ccc(-c3ccc(C[C@@H](C#N)NC(=O)[C@H]4N[C@H]5C[C@@H]4[C@@H]4C[C@@H]45)c(F)c3)cc21"
Reply: 1.01

Ask: Next record, please: CN1C(=O)Cc2ccc(-c3ccc(CC(C#N)NC(=O)[C@H]4N[C@@H]5CC[C@H]4C5)c(O)c3)cc21 (stereo partly drawn)
Reply: 1.75
